Molecular target: HLA-B*40:01
Assay: IEDB peptide-MHC binding, purified MHC/competitive/radioactivity; bounds were set here for any values at or beyond the usual limits of such assays
Settings: source organism: Plasmodium falciparum
pIC50: −log10 of the molar value.
measurement name: pIC50

- sequence input: "NELNYDNAGI"
  meas value: 5.38
- sequence input: "SENERGYYI"
  meas value: 5.43
- sequence input: "DEVDLYLLM"
  meas value: 5.53
- sequence input: "RENANQLVV"
  meas value: 6.76

###

Target: HLA-B*44:03
Assay: IEDB peptide-MHC binding, purified MHC/competitive/radioactivity; bounds were set here for any values at or beyond the usual limits of such assays
Details: source organism: Hepatitis C virus (isolate HCV-K3a/650)
Form field: IC50 (one value per entry).

- sequence input: "GEIPFYGKAI"
  IC50 [nM]: 113
- sequence input: "AEAALENLV"
  IC50 [nM]: 309

###

Target: HLA-B*40:01
Assay: IEDB peptide-MHC binding, purified MHC/competitive/radioactivity; bounds were set here for any values at or beyond the usual limits of such assays
Settings: source organism: Human immunodeficiency virus 1

- sequence input: "QEILDLWVY"
  measurement qualifier: "="
  IC50 [nM]: 739
- sequence input: "WEFVNTPPL"
  measurement qualifier: "="
  IC50 [nM]: 2.5
- sequence input: "TERQANFL"
  measurement qualifier: "="
  IC50 [nM]: 223
- sequence input: "AENLWVTVY"
  measurement qualifier: "="
  IC50 [nM]: 3370
- sequence input: "NETPGIRYQY"
  measurement qualifier: "≥"
  IC50 [nM]: 20000
- sequence input: "IEAEVIPA"
  measurement qualifier: "="
  IC50 [nM]: 5950
- sequence input: "AENLYVTVF"
  measurement qualifier: "="
  IC50 [nM]: 17

###

Quick list: log10(IC50) per entry.
Molecular target: HLA-B*18:01
Assay: IEDB peptide-MHC binding, purified MHC/competitive/radioactivity; bounds were set here for any values at or beyond the usual limits of such assays
Details: source organism: Human immunodeficiency virus 1
measurement name: log10(IC50) (log10 of the value in nM)

- sequence input: "NETPGIRYQY"
  log10(IC50): 2.25
- sequence input: "TERQANFL"
  log10(IC50): 2.48
- sequence input: "IEAEVIPA"
  log10(IC50): 1.79
- sequence input: "QEILDLWVY"
  log10(IC50): 1.72
- sequence input: "AENLWVTVY"
  log10(IC50): 1.71
- sequence input: "WEFVNTPPL"
  log10(IC50): 0.77

###

Biological target: HLA-B*45:01
Assay: IEDB peptide-MHC binding, purified MHC/competitive/radioactivity; bounds were set here for any values at or beyond the usual limits of such assays
Settings: source organism: Hepatitis C virus (isolate HCV-K3a/650)

- sequence input: "AEAALENLV"
  IC50, nM: 35

src = the Immune Epitope Database (IEDB)
